Target: Cyclin-dependent kinase 2/cyclin E (Homo sapiens)
Experiment: Inhibition of recombinant CDK2/cyclin E
pIC50: −log10 of the molar value.
Rule: pIC50 under 6 gives rule not met, otherwise rule met.

Here's what some known entries look like.
{"smiles.text": "CC(C)n1cnc2c(NCc3ccc(-c4ccccc4)cc3)nc(N[C@@H]3CCCC[C@@H]3N)nc21", "assigned.label": "rule met"}
{"smiles.text": "CC(C)n1cnc2c(NCc3ccc(-c4ccccc4Cl)cc3)nc(N[C@H]3CC[C@H](N)CC3)nc21", "assigned.label": "rule met"}
{"smiles.text": "CC(C)n1cnc2c(NCc3ccc(-c4ccccc4)cc3)nc(N[C@H]3CC[C@H](NS(C)(=O)=O)CC3)nc21", "assigned.label": "rule met"}
{"smiles.text": "CC(C)n1cnc2c(NCc3ccc(-c4ccccc4)cc3)nc(NCCCCN)nc21", "assigned.label": "rule not met"}
{"smiles.text": "CC(=O)N[C@H]1CC[C@H](Nc2nc(NCc3ccc(-c4ccccc4)cc3)c3ncn(C(C)C)c3n2)CC1", "assigned.label": "rule met"}
{"smiles.text": "CC(C)n1cnc2c(NCc3ccc(-c4ccccc4)cc3)nc(NC3(CO)CCCC3)nc21", "assigned.label": "rule met"}

Confirm if pIC50 reported for the compound `CC(C)n1cnc2c(NCc3ccc(-c4ccccc4)cc3)nc(NCC3CCNCC3)nc21` is 6 or above.
rule not met

====

Biological target: Cyclin-dependent kinase 2/cyclin A (Homo sapiens, UniProt P24941)
Test: Inhibition of recombinant CDK2/cyclin A
experimental.endpoint: pIC50
Field pIC50 (float): negative decimal logarithm of the concentration in molar.

Examples from the recorded data:
{"smiles.text": "CC(C)n1cnc2c(NCc3ccc(-c4ccccc4)cc3)nc(NCC3CCNCC3)nc21", "tested.target": "Cyclin-dependent kinase 2/cyclin A (Homo sapiens, UniProt P24941)", "reported.measurement": 5.40}
{"smiles.text": "Cc1cc(C)cc(-c2ccc(CNc3nc(N[C@H]4CC[C@H](N)CC4)nc4c3ncn4C(C)C)cc2)c1", "tested.target": "Cyclin-dependent kinase 2/cyclin A (Homo sapiens, UniProt P24941)", "reported.measurement": 6.40}
{"smiles.text": "CCN[C@H]1CC[C@H](Nc2nc(NCc3ccc(-c4ccccc4)cc3)c3ncn(C(C)C)c3n2)CC1", "tested.target": "Cyclin-dependent kinase 2/cyclin A (Homo sapiens, UniProt P24941)", "reported.measurement": 5.52}
{"smiles.text": "CC(C)n1cnc2c(NCc3ccc(-c4ccccc4)cc3)nc(N[C@H]3CC[C@H](NCC4CC4)CC3)nc21", "tested.target": "Cyclin-dependent kinase 2/cyclin A (Homo sapiens, UniProt P24941)", "reported.measurement": 6.05}

For the next question, use this molecule.
# input molecule: `CCCCN[C@H]1CC[C@H](Nc2nc(NCc3ccc(-c4ccccc4)cc3)c3ncn(C(C)C)c3n2)CC1` ; wanted: its pIC50
6.00

====

Biological target: Cyclin-dependent kinase 2/cyclin A (Homo sapiens)
Assay: Inhibition of recombinant CDK2/cyclin A
Here, each record is paired with measured pIC50 data.
Field pIC50 (float): negative decimal logarithm of the concentration in molar.

{"smiles.text": "CC(C)n1cnc2c(NCc3ccc(-c4ccccc4)cc3)nc(N[C@H]3CC[C@H](NC(=O)CC4CC4)CC3)nc21", "reported.measurement": 6.22}

For the next question, use this compound.
# input compound: `Cc1ccc(-c2ccc(CNc3nc(N[C@H]4CC[C@H](N)CC4)nc4c3ncn4C(C)C)cc2)cc1` ; wanted: its pIC50
6.40
